# target.of.assay: HCV Core 134-171-TT peptide (ALRZ-9 peptide) (HCV-1)
# procedure.text: SPR, captured mAb;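 further: Anti-HCV Core mAbs from hybridoma supernatants held on a rabbit anti-mouse IgG CM5 surface, peptide flowed over 3 min then 4 min dissociation, duplicate concentrations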
property.name: koff (s⁻¹)
Respond with the bare value in s⁻¹.

Prompt: Given the binder HCV 208B-547 (antibody, V domains shown) VH: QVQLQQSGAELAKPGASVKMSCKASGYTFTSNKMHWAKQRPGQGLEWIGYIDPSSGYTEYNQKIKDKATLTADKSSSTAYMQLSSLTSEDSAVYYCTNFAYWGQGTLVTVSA VL: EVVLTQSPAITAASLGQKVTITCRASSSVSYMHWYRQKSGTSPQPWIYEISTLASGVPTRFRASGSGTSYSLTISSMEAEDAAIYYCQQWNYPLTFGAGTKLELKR , what is its reported koff?
Completion: 0.0049
